Origin of the recorded values: patent US20040229960A1

experiment.notes: Biodistribution of 14C-CA4P following intravitreal injection
Type: in vivo, New Zealand rabbits
conditions: aqueous humor; 10 mg/ml intravitreal
measurement.label: Cmax (nM)
// return numeric value only (unit: nM, not printed)

Task: // lookup Cmax for COc1ccc(/C=C\c2cc(OC)c(OC)c(OC)c2)cc1OP(=O)([O-])[O-].[Na+].[Na+] [CA4P, combretastatin A4 disodium phosphate]
Result: 790

###

experiment.notes: Biodistribution of 14C-CA4P following topical administration of a gel
Type: in vivo, New Zealand rabbits
conditions: retina; 1% topical gel
measurement.label: Cmax

Task: // lookup Cmax for COc1ccc(/C=C\c2cc(OC)c(OC)c(OC)c2)cc1OP(=O)([O-])[O-].[Na+].[Na+] [CA4P, combretastatin A4 disodium phosphate]
Result: 1000 nM
